target: Smoothened (Smo) (Homo sapiens, UniProt Q99835); construct: wild-type human Smo overexpressed in C3H10T1/2 cells; assay: BODIPY-cyclopamine competition binding on Smo-expressing cells, flow cytometry
Sequence (Q99835 28-787): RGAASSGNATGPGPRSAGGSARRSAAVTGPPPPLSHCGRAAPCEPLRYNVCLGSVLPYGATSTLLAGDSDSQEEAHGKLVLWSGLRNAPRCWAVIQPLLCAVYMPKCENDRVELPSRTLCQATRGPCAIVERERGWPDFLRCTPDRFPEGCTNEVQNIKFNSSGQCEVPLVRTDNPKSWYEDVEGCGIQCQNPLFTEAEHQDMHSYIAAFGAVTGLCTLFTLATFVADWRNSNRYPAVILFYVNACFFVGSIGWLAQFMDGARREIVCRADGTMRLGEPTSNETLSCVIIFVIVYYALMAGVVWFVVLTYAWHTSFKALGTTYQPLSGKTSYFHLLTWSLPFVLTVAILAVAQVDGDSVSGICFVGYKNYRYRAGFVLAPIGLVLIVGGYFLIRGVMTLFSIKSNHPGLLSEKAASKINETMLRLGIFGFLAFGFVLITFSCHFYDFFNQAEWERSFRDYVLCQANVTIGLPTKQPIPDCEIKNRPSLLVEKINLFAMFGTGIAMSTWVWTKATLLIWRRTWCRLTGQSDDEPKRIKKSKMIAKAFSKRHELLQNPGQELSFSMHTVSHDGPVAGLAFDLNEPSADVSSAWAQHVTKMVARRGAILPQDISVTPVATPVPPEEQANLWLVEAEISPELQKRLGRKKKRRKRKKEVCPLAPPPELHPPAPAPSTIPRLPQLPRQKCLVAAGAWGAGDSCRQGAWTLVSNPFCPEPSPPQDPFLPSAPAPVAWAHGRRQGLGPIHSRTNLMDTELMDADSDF
assay endpoint: pEC50
Value format note: pEC50 is -log10 of concentration (mol/L); just state the number.

[Q] // map CC1=C2C[C@H]3[C@@H](CC[C@@H]4C[C@H](NS(C)(=O)=O)CC[C@@]43C)[C@@H]2CC[C@@]2(C1)O[C@@H]1C[C@H](C)CN[C@H]1[C@H]2C [IPI-926] to recorded pEC50 (system: Smoothened (Smo) (Homo sapiens, UniProt Q99835))
[A] 9.00
